- System: P-388 (mouse leukemia)
- Assay Remarks: Sulforhodamine B cytotoxicity assay, P-388
- Assay type: cell-based
- Condition Context: P388, transformed, 72 hours
I'd be grateful if you could share measured IC50 for these entries.
Answers are plain numbers, in nM.

Query Smiles | Target | IC50 [nM]
COc1cccc2c1C(=O)c1c(O)c3c(c(O)c1C2=O)C[C@@](O)(C(C)=O)C[C@@H]3O[C@H]1C[C@H](NC(=O)OCCS(=O)(=O)c2ccccc2)[C@H](O)[C@H](C)O1 | P-388 (mouse leukemia) | 780

Now for another entry.
GET /values?item= COc1cccc2c1C(=O)c1c(O)c3c(c(O)c1C2=O)C[C@@](O)(C(C)=O)C[C@@H]3O[C@H]1C[C@H](N)[C@H](O)[C@H](C)O1 &system= P-388 (mouse leukemia) returns IC50: 390

The reported measurements were obtained from patent US5643887A.
